// data source = ChEMBL document CHEMBL1159155

assay: Inhibition of bovine heart cAMP-dependent protein kinase (PKA); parameters: species or system Bos taurus
Non-standard residues stand in square brackets, D forms with d. Residues, ends and D or L forms follow the SMILES beside them. *: point of attachment. Bpa = N[C@@H](Cc1ccc(C(=O)c2ccccc2)cc1)C(=O)O; Npys = O=[N+]([O-])c1cccnc1S*
value type: Kd (µM)

molecule: CC(C)C[C@H](NC(=O)[C@H](CO)NC(=O)[C@H](C)NC(=O)[C@H](CCCNC(=N)N)NC(=O)[C@H](CCCNC(=N)N)NC(=O)[C@@H](N)CC(C)C)C(=O)NCC(=O)O [KEMPTIDE]
measure unit: µM
Kd: 250

1: CC(C)C[C@H](NC(=O)[C@H](CSSc1ncccc1[N+](=O)[O-])NC(=O)[C@H](C)NC(=O)[C@H](CCCN=C(N)N)NC(=O)[C@H](CCCN=C(N)N)NC(=O)[C@@H](N)CC(C)C)C(=O)NCC(=O)O (H-LRRAC(Npys)LG-OH)
2: CC(C)C[C@H](NC(=O)[C@H](Cc1ccc(C(=O)c2ccccc2)cc1)NC(=O)[C@H](C)NC(=O)[C@H](CCCN=C(N)N)NC(=O)[C@H](CCCN=C(N)N)NC(=O)[C@@H](N)CC(C)C)C(=O)NCC(=O)O (H-LRRA[Bpa]LG-OH)
Hi, I'm comparing 1 with 2 and wondering which one has the bigger number for Kd. Any idea? Provide the label of your selected option as the answer.
2
(2: 110 µM, 1: 40 µM)

----------
experiment: Inhibition of bovine heart cAMP-dependent protein kinase (PKA); design: species or system Bos taurus
Residues, ends and D or L forms follow the SMILES beside them. *: point of attachment. X1 = CC(C)CCOC[C@H](CO)N*
value type: pKi
The scale used: pKi is minus the common logarithm of the concentration in molar units.

// pKi lookup, key: CC(C)CCOC[C@H](CO)NC(=O)[C@H](C)NC(=O)[C@H](CCCN=C(N)N)NC(=O)[C@H](CCCN=C(N)N)NC(=O)[C@@H](N)CC(C)C (H-LRRA-X1)
3.92

----------
test: Inhibition of bovine heart cAMP-dependent protein kinase (PKA); set-up: species or system Bos taurus
value type: Kd (µM)
Quick reminder: number only, in µM, skip the unit.

Could you tell me which Kd is on file for "H-LRRAALG-OH" ?
490
